Entry source: paper PMC8820820

assay: Bidirectional Caco2 cell monolayer permeability; conditions: human, Caco-2, Papp Efflux Ratio (ER), Papp,B>A / Papp,A>B
measurementKind: efflux ratio at 90 min
Reply: number alone, nothing else.

INSERT INTO assay_data (compound, endpointvalue) VALUES
  ('C[C@H]1O[C@@H](O[C@H]2[C@@H](O)C[C@H](O[C@H]3[C@@H](O)C[C@H](O[C@H]4CC[C@@]5(C)[C@H](CC[C@@H]6[C@@H]5C[C@@H](O)[C@]5(C)[C@@H](C7=CC(=O)OC7)CC[C@]65O)C4)O[C@@H]3C)O[C@@H]2C)C[C@H](O)[C@@H]1O [Digoxin]', 21);

// next item, efflux ratio at 90 min requested
Query :: Please look up its efflux ratio at 90 min: CC(C)NCC(O)COc1cccc2ccccc12 (centres unmarked) [Propranolol]
Result :: 0.87

###

Target: CYP2C8 (Homo sapiens)
Sequence (P10632 1-490): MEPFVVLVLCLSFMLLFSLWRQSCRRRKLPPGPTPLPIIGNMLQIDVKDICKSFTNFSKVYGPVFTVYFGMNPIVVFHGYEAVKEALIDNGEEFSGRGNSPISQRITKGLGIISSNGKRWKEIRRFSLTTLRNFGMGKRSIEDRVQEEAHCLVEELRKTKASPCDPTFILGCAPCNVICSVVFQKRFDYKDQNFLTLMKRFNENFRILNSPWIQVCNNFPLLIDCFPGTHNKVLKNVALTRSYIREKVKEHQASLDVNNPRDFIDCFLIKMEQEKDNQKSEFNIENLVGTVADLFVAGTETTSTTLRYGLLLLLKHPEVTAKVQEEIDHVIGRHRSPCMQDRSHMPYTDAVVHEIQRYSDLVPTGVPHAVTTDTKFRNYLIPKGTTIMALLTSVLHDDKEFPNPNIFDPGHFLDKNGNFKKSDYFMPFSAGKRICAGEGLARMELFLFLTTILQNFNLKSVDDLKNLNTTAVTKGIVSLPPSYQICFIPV
Settings: microsomes
measurementKind: pIC50
Field pIC50 (float): negative decimal logarithm of the concentration in molar.

Query :: Please look up its pIC50: COC1C=CC=C(C)C(=O)NC2=CC(=O)C(NCCCCCC[P+](c3ccccc3)(c3ccccc3)c3ccccc3)=C(CC(C)CC(OC)C(O)C(C)C=C(C)C1OC(N)=O)C2=O.F[P-](F)(F)(F)(F)F (stereo not shown) [Gamitrinib]
Result :: 5.10

###

test: Bidirectional Caco2 cell monolayer permeability; settings: human, Caco-2, Pexact Efflux Ratio, Caco2 monolayer
measurementKind: efflux ratio at 90 min
Reply: number alone, nothing else.

INSERT INTO results (compound, endpointvalue) VALUES
  ('C[C@H]1O[C@@H](O[C@H]2[C@@H](O)C[C@H](O[C@H]3[C@@H](O)C[C@H](O[C@H]4CC[C@@]5(C)[C@H](CC[C@@H]6[C@@H]5C[C@@H](O)[C@]5(C)[C@@H](C7=CC(=O)OC7)CC[C@]65O)C4)O[C@@H]3C)O[C@@H]2C)C[C@H](O)[C@@H]1O [Digoxin]', 21.2);

// next item, efflux ratio at 90 min requested
Query :: Please look up its efflux ratio at 90 min: CC(C)NCC(O)COc1cccc2ccccc12 (centres unmarked) [Propranolol]
Result :: 0.81

###

target: CYP2B6 (Homo sapiens, UniProt P20813); conditions: microsomes
Sequence (P20813 whole entry): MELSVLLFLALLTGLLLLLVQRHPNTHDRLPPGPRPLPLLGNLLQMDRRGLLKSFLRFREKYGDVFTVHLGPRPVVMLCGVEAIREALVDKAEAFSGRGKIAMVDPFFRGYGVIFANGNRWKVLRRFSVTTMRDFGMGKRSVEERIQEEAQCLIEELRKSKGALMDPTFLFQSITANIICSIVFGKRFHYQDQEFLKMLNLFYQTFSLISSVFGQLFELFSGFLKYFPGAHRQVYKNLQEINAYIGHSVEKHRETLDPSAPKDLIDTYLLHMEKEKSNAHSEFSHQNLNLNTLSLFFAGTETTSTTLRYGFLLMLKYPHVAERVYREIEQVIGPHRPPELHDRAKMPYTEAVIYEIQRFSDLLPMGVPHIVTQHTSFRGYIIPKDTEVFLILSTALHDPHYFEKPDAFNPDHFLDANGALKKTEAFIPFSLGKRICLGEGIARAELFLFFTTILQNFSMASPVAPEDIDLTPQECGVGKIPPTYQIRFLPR
measurementKind: IC50 (µM)
Please state the figure in µM; there is no need to write the unit.

Query :: Please look up its IC50: COC1C=CC=C(C)C(=O)NC2=CC(=O)C(NCCCCCC[P+](c3ccccc3)(c3ccccc3)c3ccccc3)=C(CC(C)CC(OC)C(O)C(C)C=C(C)C1OC(N)=O)C2=O.F[P-](F)(F)(F)(F)F (stereo not shown) [Gamitrinib]
Result :: 16

###

test: Bidirectional Caco2 cell monolayer permeability; conditions: human, Caco-2, Papp, B>A, Caco2 monolayer, basolateral to apical
Listing: Papp B→A at 90 min of selected compounds
Please state the figure in ×10⁻⁶ cm/s; there is no need to write the unit.

INSERT INTO results (compound, endpointvalue) VALUES
  ('C[C@H]1O[C@@H](O[C@H]2[C@@H](O)C[C@H](O[C@H]3[C@@H](O)C[C@H](O[C@H]4CC[C@@]5(C)[C@H](CC[C@@H]6[C@@H]5C[C@@H](O)[C@]5(C)[C@@H](C7=CC(=O)OC7)CC[C@]65O)C4)O[C@@H]3C)O[C@@H]2C)C[C@H](O)[C@@H]1O', 11.5);

// next item, Papp B→A at 90 min requested
Query :: Please look up its Papp B→A at 90 min: CC(C)NCC(O)COc1cccc2ccccc12 (centres unmarked)
Result :: 16.2

###

biological target: CYP2C9 (Homo sapiens, UniProt P11712); conditions: microsomes
Sequence (P11712 whole entry): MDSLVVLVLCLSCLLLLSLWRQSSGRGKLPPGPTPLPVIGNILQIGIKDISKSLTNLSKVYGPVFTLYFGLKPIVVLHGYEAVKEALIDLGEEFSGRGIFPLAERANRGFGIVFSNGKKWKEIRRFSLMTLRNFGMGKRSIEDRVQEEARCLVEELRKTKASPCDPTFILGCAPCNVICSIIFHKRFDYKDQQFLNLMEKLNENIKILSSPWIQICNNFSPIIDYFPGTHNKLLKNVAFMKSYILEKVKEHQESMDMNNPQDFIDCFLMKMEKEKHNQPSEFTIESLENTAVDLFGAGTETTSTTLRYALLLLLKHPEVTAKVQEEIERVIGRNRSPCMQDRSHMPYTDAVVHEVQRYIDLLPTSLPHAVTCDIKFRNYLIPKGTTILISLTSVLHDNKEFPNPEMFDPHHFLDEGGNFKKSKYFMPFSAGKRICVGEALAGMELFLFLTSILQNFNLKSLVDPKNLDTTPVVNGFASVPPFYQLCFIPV
measurementKind: IC50 (nM)
Please state the figure in nM; there is no need to write the unit.

Query :: Record COC1C=CC=C(C)C(=O)NC2=CC(=O)C(NCCCCCC[P+](c3ccccc3)(c3ccccc3)c3ccccc3)=C(CC(C)CC(OC)C(O)C(C)C=C(C)C1OC(N)=O)C2=O.F[P-](F)(F)(F)(F)F (stereo not shown) : what is its IC50 with CYP2C9 (Homo sapiens, UniProt P11712)?
Result :: 1100

###

test: in vitro; conditions: human
measurementKind: recovery at 4 h, 2 µg/mL (%)
Please state the figure in %; there is no need to write the unit.

Query :: Please look up its recovery at 4 h, 2 µg/mL: CC(=O)CC(c1ccccc1)c1c(O)c2ccccc2oc1=O (stereo not shown)
Result :: 88.3

###

assay: Phase I, cytochrome P450-mediated human liver microsome metabolism; conditions: human, liver microsomes
measurementKind: half-life at 0.5 µM (min)
Please state the figure in min; there is no need to write the unit.

Query :: Please look up its half-life at 0.5 µM: Cc1ncc2n1-c1ccc(Cl)cc1C(c1ccccc1F)=NC2 [Midazolam, reference compound]
Result :: 17

###

molecular target: hERG (Homo sapiens)
Sequence (Q12809 whole entry): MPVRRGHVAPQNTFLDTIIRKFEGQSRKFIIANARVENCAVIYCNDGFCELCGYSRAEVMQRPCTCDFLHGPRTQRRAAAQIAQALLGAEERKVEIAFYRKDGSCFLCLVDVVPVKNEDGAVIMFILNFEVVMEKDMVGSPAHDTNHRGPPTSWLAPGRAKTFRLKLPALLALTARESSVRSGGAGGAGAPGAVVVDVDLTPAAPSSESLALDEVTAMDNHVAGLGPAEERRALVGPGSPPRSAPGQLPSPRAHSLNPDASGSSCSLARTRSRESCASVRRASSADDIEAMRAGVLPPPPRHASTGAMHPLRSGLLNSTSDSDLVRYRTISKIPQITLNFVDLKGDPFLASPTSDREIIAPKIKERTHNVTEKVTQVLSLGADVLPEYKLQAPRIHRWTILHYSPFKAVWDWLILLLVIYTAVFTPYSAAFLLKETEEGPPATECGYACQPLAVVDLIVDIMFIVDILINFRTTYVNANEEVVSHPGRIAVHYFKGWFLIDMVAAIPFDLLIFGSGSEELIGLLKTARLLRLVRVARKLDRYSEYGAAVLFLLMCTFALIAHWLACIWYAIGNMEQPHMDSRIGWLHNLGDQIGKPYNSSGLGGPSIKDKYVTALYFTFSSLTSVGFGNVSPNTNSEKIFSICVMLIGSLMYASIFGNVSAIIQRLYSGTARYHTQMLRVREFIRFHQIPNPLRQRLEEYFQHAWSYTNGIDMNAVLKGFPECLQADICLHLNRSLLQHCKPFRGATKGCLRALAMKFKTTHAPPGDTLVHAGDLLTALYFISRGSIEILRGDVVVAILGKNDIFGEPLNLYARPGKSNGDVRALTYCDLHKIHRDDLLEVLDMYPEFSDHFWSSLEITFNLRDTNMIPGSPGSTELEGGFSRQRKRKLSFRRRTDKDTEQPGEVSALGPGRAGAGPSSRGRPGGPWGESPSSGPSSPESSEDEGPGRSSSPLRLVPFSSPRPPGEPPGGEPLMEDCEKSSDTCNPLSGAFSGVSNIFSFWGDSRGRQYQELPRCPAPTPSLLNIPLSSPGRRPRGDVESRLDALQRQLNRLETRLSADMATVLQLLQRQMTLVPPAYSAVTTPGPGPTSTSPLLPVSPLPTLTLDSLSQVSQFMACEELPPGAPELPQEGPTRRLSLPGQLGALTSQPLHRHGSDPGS
measurementKind: pIC50
Field pIC50 (float): negative decimal logarithm of the concentration in molar.

Query :: Record COC1C=CC=C(C)C(=O)NC2=CC(=O)C(NCCCCCC[P+](c3ccccc3)(c3ccccc3)c3ccccc3)=C(CC(C)CC(OC)C(O)C(C)C=C(C)C1OC(N)=O)C2=O.F[P-](F)(F)(F)(F)F (stereo not shown) [Gamitrinib] : what is its pIC50 with hERG (Homo sapiens)?
Result :: 5.46

###

Target: CYP2A6 (Homo sapiens, UniProt P11509)
Sequence (P11509 1-494): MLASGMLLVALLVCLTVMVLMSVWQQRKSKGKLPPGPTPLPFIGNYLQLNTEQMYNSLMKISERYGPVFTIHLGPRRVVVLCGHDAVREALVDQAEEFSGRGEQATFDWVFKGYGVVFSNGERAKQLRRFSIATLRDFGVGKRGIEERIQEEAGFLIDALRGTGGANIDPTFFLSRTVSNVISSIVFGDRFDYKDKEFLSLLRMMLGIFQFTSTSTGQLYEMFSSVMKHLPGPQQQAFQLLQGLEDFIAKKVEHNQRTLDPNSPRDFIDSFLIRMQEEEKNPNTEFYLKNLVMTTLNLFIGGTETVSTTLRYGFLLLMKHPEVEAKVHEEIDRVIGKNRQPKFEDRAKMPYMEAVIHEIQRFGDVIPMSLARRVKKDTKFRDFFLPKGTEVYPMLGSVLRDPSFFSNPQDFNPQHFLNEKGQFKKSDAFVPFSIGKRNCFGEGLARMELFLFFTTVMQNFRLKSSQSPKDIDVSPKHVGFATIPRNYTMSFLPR
Details: microsomes
measurementKind: IC50 (µM)
Please state the figure in µM; there is no need to write the unit.

Query :: Record COC1C=CC=C(C)C(=O)NC2=CC(=O)C(NCCCCCC[P+](c3ccccc3)(c3ccccc3)c3ccccc3)=C(CC(C)CC(OC)C(O)C(C)C=C(C)C1OC(N)=O)C2=O.F[P-](F)(F)(F)(F)F (stereo not shown) : what is its IC50 with CYP2A6 (Homo sapiens, UniProt P11509)?
Result :: 24

###

assay: Bidirectional Caco2 cell monolayer permeability; conditions: human, Caco-2, Papp, A>B, Caco2 monolayer, apical to basolateral
Listing: Papp A→B at 90 min of selected compounds
Please state the figure in ×10⁻⁶ cm/s; there is no need to write the unit.

INSERT INTO assay_data (compound, measurementkind, endpointvalue) VALUES
  ('C[C@H]1O[C@@H](O[C@H]2[C@@H](O)C[C@H](O[C@H]3[C@@H](O)C[C@H](O[C@H]4CC[C@@]5(C)[C@H](CC[C@@H]6[C@@H]5C[C@@H](O)[C@]5(C)[C@@H](C7=CC(=O)OC7)CC[C@]65O)C4)O[C@@H]3C)O[C@@H]2C)C[C@H](O)[C@@H]1O [Digoxin]', 'Papp A→B at 90 min', 0.547);

Query :: Please look up its Papp A→B at 90 min: CC(C)NCC(O)COc1cccc2ccccc12 (centres unmarked) [Propranolol]
Result :: 18.6
